Where do the numbers come from? From PubChem BioAssay (NCI).

Tested on: SN12C renal
Assay: NCI-60 one-dose screen, 48 h (100 = growth as untreated, 0 = no growth, -100 = all killed)
Settings: 10 µM unless noted
This is part of a sample that, as a whole, favours compounds with a hit. Of some 83,000 tested, about 20% had one in any assay.
ASSAY_READOUT: growth (%)
Give bare numbers, in %.

Sample records with growth:
>  <COMPOUND>
CCCCCCCCCCCCNC(=O)[C@H]1CSC(c2cc(Br)cs2)N1 (some centres undefined)

>  <ASSAY_READOUT>
growth

>  <OBSERVED_MEASUREMENT>
-53.5

$$$$
>  <COMPOUND>
ClC(Cl)c1nc(-c2ccccc2)nc2cc(-c3ccccc3)nn12

>  <ASSAY_READOUT>
growth

>  <OBSERVED_MEASUREMENT>
72.1

$$$$
>  <COMPOUND>
COc1ccc(/C=C2\N=C(c3ccccc3)N(C(=O)c3ccccc3O)NC2=O)cc1

>  <ASSAY_READOUT>
growth

>  <OBSERVED_MEASUREMENT>
86.6

$$$$
>  <COMPOUND>
COc1cccc(/C=C2\Oc3cc(OCCCN4CCCC4)ccc3C2=O)c1OC

>  <ASSAY_READOUT>
growth

>  <OBSERVED_MEASUREMENT>
95.2

$$$$
>  <COMPOUND>
C=C[C@@H]1C[C@@H]2Cc3c(C)cc(C)cc3N1O2

>  <ASSAY_READOUT>
growth

>  <OBSERVED_MEASUREMENT>
101

$$$$

Please give growth for each item listed below.
1. O=C1/C(=C/c2ccccc2)Oc2ccc(O)c(I)c21
2. Cc1nn(-c2ccc(Cl)cc2)c2ncnc(N/N=C/c3cccc([N+](=O)[O-])c3)c12

1. 85.7
2. 101

Please give growth for each item listed below.
1. COc1ccc(NC(=O)CSc2nc(-c3ccc(OC)c(OC)c3)cc(-c3cc(OC)c(OC)c(OC)c3)n2)cc1
2. O=C(NNC(=O)N1c2ccccc2C=Cc2ccccc21)c1ccccc1
3. CCN1CCN(CC(=O)N2c3cccc4cccc(c34)N(C(=O)CN3CCN(CC)CC3)C2c2cn(-c3ccccc3)nc2-c2cccc([N+](=O)[O-])c2)CC1
4. COc1ccc(/C=C2\Oc3cc(OCCCN4CCCC4)ccc3C2=O)c(OC)c1
5. Cc1ccc2nc(Cl)cc(=O)n2c1

1: 93.9; 2: 102; 3: -53; 4: 91.8; 5: 101

###

For each entry below, report its growth value.
Test system: OVCAR-3 ovarian
Experiment: NCI-60 one-dose screen, 48 h (100 = growth as untreated, 0 = no growth, -100 = all killed)
Settings: 10 µM unless noted
This is part of a sample that, as a whole, favours compounds with a hit. Of some 83,000 tested, about 20% had one in any assay.
Give bare numbers, in %.

>  <COMPOUND>
COc1cc(Nc2nc(N[C@H]3CCCC[C@@H]3N)nc3cc[nH]c(=O)c23)cc(OC)c1

>  <OBSERVED_MEASUREMENT>
70.4

$$$$
>  <COMPOUND>
COc1ccc(N2CCN(Cc3cc(C(=O)/C=C/c4c[nH]c5ccccc45)ccc3O)CC2)cc1

>  <OBSERVED_MEASUREMENT>
114

$$$$
>  <COMPOUND>
C=C[C@@H]1C[C@H](O)Cc2cc(F)ccc2N1

>  <OBSERVED_MEASUREMENT>
102

$$$$
>  <COMPOUND>
Cc1ccc(-c2cc3nc(-c4ccccc4)nc(C(Cl)Cl)n3n2)cc1

>  <OBSERVED_MEASUREMENT>
-94.5

$$$$
>  <COMPOUND>
CC(NNC(C)c1ccccc1)c1ccccc1 (stereo not given)

>  <OBSERVED_MEASUREMENT>
118

$$$$
>  <COMPOUND>
O=C1NC(=C(Cl)Cl)/C(=N/S(=O)(=O)N2CCC(C3(C(F)(F)F)N=N3)CC2)N1

>  <OBSERVED_MEASUREMENT>
40

$$$$
>  <COMPOUND>
Cc1csc(NC(c2ccc(Br)cc2)c2c(C)nc3ccccn23)n1 (stereo not given)

>  <OBSERVED_MEASUREMENT>
96.7

$$$$
>  <COMPOUND>
O=[N+]([O-])c1cccc(-c2nc3sccn3c2-c2ccnc(NCCCNS(=O)(=O)c3ccc(Cl)cc3)n2)c1

>  <OBSERVED_MEASUREMENT>
44.5

$$$$

Please give growth for each item listed below.
1. COc1ccc(-c2c(N)n[nH]c2-c2cc3c(c(OC)c2OC)OCO3)cc1
2. O=C(CN1CCN(c2cc3c(cc2F)c(=O)c(C(=O)N/N=C/c2ccccc2O)cn3C2CC2)CC1)N/N=C\c1ccccc1O
3. CCOC(=O)c1cn2c3c(cccc3c1=O)C(=O)/C(=C/c1cccc(Cl)c1Cl)C2
4. CCCCCCCCCCCCNC(=O)[C@H]1CSC(c2cc3ccccc3s2)N1 (stereo not given in full)
5. Nc1nc(=O)c2ccccc2s1
6. Cc1cc(N/N=C/c2nc(-c3ccc(Br)cc3)oc2C)c2cc(Cl)ccc2n1
7. COc1ccc2c(c1)NC1=C(C(=O)OC1)C2c1cc(OC)c2c(c1)OCO2 (stereo not given)

1. 108
2. 30.7
3. 113
4. -61.3
5. 131
6. 45.2
7. -44.9

Please give growth for each item listed below.
1. COc1c2occc2c(OC)c2c(=O)c(-c3cc(-c4ccc(F)cc4)c(C#N)c(N)n3)c(C)oc12
2. COc1cc(Nc2ncccc2C(=O)NCc2cn(Cc3cccc(Oc4ccccc4)c3)nn2)cc(OC)c1
3. CCC(=O)Oc1ccc(/C(=C(/C)Cc2cccc(OC)c2)c2ccc(OCCN(C)C)cc2)cc1
4. O=[N+]([O-])c1ccc(OCCCOc2ccccc2)cc1
5. O=c1ccn(C2CC(O)C(O)C(CO)O2)c(=O)[nH]1 (stereo not given)
6. Nc1nc(Nc2cc(Cl)cc(Cl)c2)nn1S(=O)(=O)c1ccc2ccccc2c1
7. CSc1nc2c(c(=O)[nH]1)C(c1ccc(C)cc1)C=C(C(=O)O)N2 (stereo not given)

1. 15.2
2. -2.42
3. 92
4. 99.3
5. 123
6. 60.1
7. 123

Please give growth for each item listed below.
1. O=C1CS/C(=N\Nc2cc(=O)[nH]c3ccccc23)N1c1ccccc1
2. Cc1ccc(CSC(=N)N)cc1C

[99.8, 116]

Quick note, growth for "CCc1ccc(-c2ccc(=O)n(-c3ccc(S(N)(=O)=O)cc3)n2)cc1" landed at -56.8
